Reference source for all entries: patent US9096559B2

SUBJECT OF TEST: CYP2D6 (Homo sapiens (Human))
Sequence (P10635 whole entry): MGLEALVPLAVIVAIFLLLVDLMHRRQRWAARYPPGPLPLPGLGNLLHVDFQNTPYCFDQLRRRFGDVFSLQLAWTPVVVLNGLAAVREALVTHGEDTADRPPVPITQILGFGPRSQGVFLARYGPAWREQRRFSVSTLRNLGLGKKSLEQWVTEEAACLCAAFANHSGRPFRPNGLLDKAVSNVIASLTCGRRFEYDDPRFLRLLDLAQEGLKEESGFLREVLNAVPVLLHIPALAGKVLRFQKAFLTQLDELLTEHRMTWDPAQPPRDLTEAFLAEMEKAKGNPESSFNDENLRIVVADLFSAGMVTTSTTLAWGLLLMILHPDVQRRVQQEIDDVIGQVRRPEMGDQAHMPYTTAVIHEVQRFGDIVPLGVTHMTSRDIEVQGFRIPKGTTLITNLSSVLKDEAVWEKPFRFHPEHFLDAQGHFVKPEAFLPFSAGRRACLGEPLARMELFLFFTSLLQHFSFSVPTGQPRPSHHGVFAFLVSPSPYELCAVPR
ASSAY OVERVIEW: CYP inhibition potential, CYP2D6
Format: in vitro ADME
EXPERIMENTAL READOUT: % CYP Inhibition @ 10 μM 2D6 (%)
Give bare numbers, in %.

| MOLECULE | % CYP Inhibition @ 10 μM 2D6 (%) |
| --- | --- |
| Nc1ccc(-c2ccccc2)cc1NC(=O)c1ccc(CNC(=O)CCc2cccnc2)cc1 [Example 14a] | 25 |
| CCOC(=O)NCc1ccc(C(=O)Nc2cc(-c3ccccc3)ccc2N)cc1 [Example 14e] | 26 |

Incoming: So what does the record say about % CYP Inhibition @ 10 μM 2D6 for CCCC(=O)NCc1ccc(C(=O)Nc2cc(-c3ccccc3)ccc2N)cc1 [Example 14g] ?
Outgoing: 28
